src = patent US20030216569A1

Assay metric: melting point

compound="CC(C)(C)NC(=O)c1c(CC(O)C(CSc2ccc3ccccc3c2)NC(=O)c2cccc(N)c2Cl)ccc2ccccc12 (stereo not shown)" observed_result="110 to 112 °C"
compound=CC(C)(C)NC(=O)c1ccccc1C[C@@H](O)[C@@H](CSc1ccc2ccccc2c1)NC(=O)c1cccc2c1CCN2 observed_result="83 to 84 °C"
compound="CC(C)(C)NC(=O)c1ccccc1CC(O)C(CSc1ccc2ccccc2c1)NC(=O)c1ccc(N)c(O)c1 (stereo not shown)" observed_result="119 to 122 °C"
compound=CC(C)(C)NC(=O)c1ccccc1C[C@@H](O)[C@@H](CSc1ccc2ccccc2c1)NC(=O)c1cccc2[nH]ccc12 observed_result="109 to 110 °C"
compound="CC(C)(C)NC(=O)c1ccccc1CC(O)C(CSc1ccc2ccccc2c1)NC(=O)c1cccc(N)c1Br (stereo not shown)" observed_result="110 to 112 °C"
compound="CC(C)(C)NC(=O)c1ccccc1CC(O)C(CSc1ccc2ccccc2c1)NC(=O)c1cc(N)ccc1Cl (stereo not shown)" observed_result="109 to 110 °C"
compound=CC(C)(C)NC(=O)c1ccccc1C[C@@H](O)[C@@H](CSc1ccc2ccccc2c1)NC(=O)c1ccnc2ccccc12 observed_result="89 to 92 °C"

###

# Experimental system: HIV-1 protease (Human immunodeficiency virus type 1 group M subtype B, UniProt P04585)
# Procedure details: Fluorescence HIV-1 Protease Inhibitor Assay (Pandex)
# Type: biochemical
# Design: made in house; host or cells: E. coli K12 L507/pHP10D (NRRL B-18560)
# Cond: value as run; 35B value of the same run in footnote or parentheses; read-out: Pandex IC50 ng/ml (converted)
Below, each entry is listed alongside its reported IC50.
Assay metric: IC50 (nM)

molecule="Cc1ccccc1C(=O)NC(CSc1ccccc1)C(O)CN1CC2CCCCC2CC1C(=O)NC(C)(C)C (stereo not shown)" assay_metric=IC50 unit_info=nM observed_result=3.62
molecule="Cc1c(O)cccc1C(=O)NC(CSc1ccc2ccccc2c1)C(O)CN1CC2CCCCC2CC1C(=O)NC(C)(C)C (stereo not shown)" assay_metric=IC50 unit_info=nM observed_result=4.53
molecule="Cc1ccc(O)c(C)c1C(=O)NC(CSc1ccccc1)C(O)CN1CC2CCCCC2CC1C(=O)NC(C)(C)C (stereo not shown)" assay_metric=IC50 unit_info=nM observed_result=13.7
molecule="Cc1cnccc1C(=O)NC(CSc1ccccc1)C(O)CN1CC2CCCCC2CC1C(=O)NC(C)(C)C (stereo not shown)" assay_metric=IC50 unit_info=nM observed_result=9.05

###

# System: Viral SN123 infected CEM cells
# Cond: Human immunodeficiency virus 1, CCRF-CEM, read-out: Whole cell IC50 nM, CEM cells; values in parentheses are 35B in same assay
Assay metric: IC50 (nM)

molecule="Cc1ccccc1C(=O)NC(CSc1ccccc1)C(O)CN1CC2CCCCC2CC1C(=O)NC(C)(C)C (centres unmarked) [Example 29]" assay_metric=IC50 observed_result=1590
molecule="Cc1c(OP(=O)(O)O)cccc1C(=O)N[C@@H](CSc1ccccc1)[C@H](O)CN1C[C@H]2CCCC[C@H]2C[C@H]1C(=O)NC(C)(C)C.Cl (relative stereo) [Example 80, Phosphate Hydrochloride]" assay_metric=IC50 observed_result=8.99
molecule="CCCc1c(O)cccc1C(=O)NC(Cc1ccccc1)C(O)CN1CC2CCCCC2CC1C(=O)NC(C)(C)C (centres unmarked) [Example 22]" assay_metric=IC50 observed_result=400
molecule="Cc1c(N)cccc1C(=O)NC(Cc1ccccc1)C(O)CN1CC2CCCCC2CC1C(=O)NC(C)(C)C (centres unmarked) [Example 18]" assay_metric=IC50 observed_result=739
molecule="CC(C)(C)NC(=O)[C@@H]1CN(Cc2cccnc2)CCN1C[C@@H](O)[C@H](CSc1ccccc1)NC(=O)c1cccc2c1CCCN2 [Example 33]" assay_metric=IC50 observed_result=39.5

###

Below, each entry is listed alongside its reported IC50.
# Experimental system: HIV-1 protease (Human immunodeficiency virus type 1 group M subtype B, UniProt P04585)
# Procedure details: Fluorescence HIV-1 Protease Inhibitor Assay (Pandex)
# Format: biochemical
# Parameters: made in house; host or cells: E. coli K12 L507/pHP10D (NRRL B-18560)
# Cond: normalized to positive control (=1.0); * = a calculated average; read-out: Fluorescence Assay IC50 in ng/mL (converted)
Assay metric: IC50 (nM)

compound=CC(C)(C)NC(=O)c1ccccc1C[C@@H](O)[C@@H](CSc1ccc2ccccc2c1)NC(=O)c1cccc2c1CCN2 experimental_system="HIV-1 protease (Human immunodeficiency virus type 1 group M subtype B, UniProt P04585)" observed_result=687
compound=CC(C)(C)NC(=O)c1ccccc1C[C@@H](O)[C@@H](CSc1ccc2ccccc2c1)NC(=O)c1cccc2[nH]ccc12 experimental_system="HIV-1 protease (Human immunodeficiency virus type 1 group M subtype B, UniProt P04585)" observed_result=350
compound="CCc1c(O)cccc1C(=O)NC(Cc1ccccc1)C(O)CN1CC2CCCCC2CC1C(=O)NC(C)(C)C (stereo not shown)" experimental_system="HIV-1 protease (Human immunodeficiency virus type 1 group M subtype B, UniProt P04585)" observed_result=44
compound="CC(C)(C)NC(=O)c1ccccc1CC(O)C(CSc1ccc2ccccc2c1)NC(=O)c1ccc(N)cc1Cl (stereo not shown)" experimental_system="HIV-1 protease (Human immunodeficiency virus type 1 group M subtype B, UniProt P04585)" observed_result=312
compound="CC(C)(C)NC(=O)c1ccccc1CC(O)C(CSc1ccc2ccccc2c1)NC(=O)c1cc(N)ccc1Cl (stereo not shown)" experimental_system="HIV-1 protease (Human immunodeficiency virus type 1 group M subtype B, UniProt P04585)" observed_result=194
compound="CC(C)(C)NC(=O)c1ccccc1CC(O)C(CSc1ccc2ccccc2c1)NC(=O)c1ccc(N)c(O)c1 (stereo not shown)" experimental_system="HIV-1 protease (Human immunodeficiency virus type 1 group M subtype B, UniProt P04585)" observed_result=3480
compound="Cc1c(O)cccc1C(=O)NC(Cc1ccccc1)C(O)CN1CC2CCCCC2CC1C(=O)NC(C)(C)C (stereo not shown)" experimental_system="HIV-1 protease (Human immunodeficiency virus type 1 group M subtype B, UniProt P04585)" observed_result=15.5

###

# Experimental system: HIV-1 protease (Human immunodeficiency virus type 1 group M subtype B, UniProt P04585)
# Procedure details: Fluorescence HIV-1 Protease Inhibitor Assay (Pandex)
# Format: biochemical
# Parameters: made in house; host or cells: E. coli K12 L507/pHP10D (NRRL B-18560)
# Cond: value as run; 35B value of the same run in footnote or parentheses; read-out: Pandex IC50 ng/ml (converted)
Assay metric: log10 IC50 (log10 of the value in µM)

molecule=Cc1c(O)cccc1C(=O)N[C@@H](Cc1ccccc1)[C@H](O)CN1CCN(Cc2cccnc2)C[C@H]1C(=O)NC(C)(C)C observed_result=-2.40
molecule="CCc1c(O)cccc1C(=O)NC(Cc1ccccc1)C(O)CN1CC2CCCCC2CC1C(=O)NC(C)(C)C (stereo not shown)" observed_result=-1.68
molecule="CC(C)(C)NC(=O)C1CC2CCCCC2CN1CC(O)C(Cc1ccccc1)NC(=O)c1ccccc1C(F)(F)F (stereo not shown)" observed_result=-0.50
molecule=Cc1c(O)cccc1C(=O)N[C@@H](CSc1ccccc1)[C@H](O)CN1CCN(Cc2cccnc2)C[C@H]1C(=O)NC(C)(C)C observed_result=-3.16
molecule="CC(C)(C)NC(=O)C1CC2CCCCC2CN1CC(O)C(Cc1ccccc1)NC(=O)c1cccc(O)c1Cl (stereo not shown)" observed_result=-1.61
molecule="CC(C)(C)NC(=O)C1CC2CCCCC2CN1CC(O)C(Cc1ccccc1)NC(=O)c1cc(O)cc(O)c1Cl (stereo not shown)" observed_result=-2.00
molecule="CC(C)(C)NC(=O)C1CC2CCCCC2CN1CC(O)C(Cc1ccccc1)NC(=O)c1cccc2c1CCCN2 (stereo not shown)" observed_result=-1.23

###

Below, each entry is listed alongside its reported log10 IC50.
# Experimental system: HIV-1 protease (Human immunodeficiency virus type 1 group M subtype B, UniProt P04585)
# Procedure details: Fluorescence HIV-1 Protease Inhibitor Assay (Pandex)
# Assay type: biochemical
# Design: made in house; host or cells: E. coli K12 L507/pHP10D (NRRL B-18560)
# Cond: normalized to positive control (=1.0); * = a calculated average; read-out: Fluorescence Assay IC50 in ng/mL (converted)
Assay metric: log10 IC50 (log10 of the value in nM)

compound=Cc1c(O)cccc1C(=O)N[C@@H](Cc1ccccc1)[C@H](O)CN1CCN(Cc2cccnc2)C[C@H]1C(=O)NC(C)(C)C assay_metric="log10 IC50" observed_result=0.73
compound=Cc1c(O)cccc1C(=O)N[C@@H](Cc1ccccc1)[C@H](O)Cc1ccccc1C(=O)NC(C)(C)C assay_metric="log10 IC50" observed_result=1.32
compound=CC(C)(C)NC(=O)c1ccccc1C[C@@H](O)[C@@H](CSc1ccc2ccccc2c1)NC(=O)c1cccc(N)c1Cl assay_metric="log10 IC50" observed_result=2.08
compound="CC(C)(C)NC(=O)C1CC2CCCCC2CN1CC(O)C(Cc1ccccc1)NC(=O)c1cc(O)cc(O)c1Cl (stereo not drawn)" assay_metric="log10 IC50" observed_result=1.46
compound=CC(C)(C)NC(=O)c1ccccc1C[C@@H](O)[C@@H](CSc1ccc2ccccc2c1)NC(=O)c1cccc2ccccc12 assay_metric="log10 IC50" observed_result=3.44
compound="CC(C)(C)NC(=O)C1CC2CCCCC2CN1CC(O)C(Cc1ccccc1)NC(=O)c1cccnc1Cl (stereo not drawn)" assay_metric="log10 IC50" observed_result=3.30
compound=CC(C)(C)NC(=O)c1ccccc1C[C@@H](O)[C@@H](CSc1ccc2ccccc2c1)NC(=O)c1ccnc2ccccc12 assay_metric="log10 IC50" observed_result=2.68
compound="Cc1ccc([N+](=O)[O-])cc1C(=O)NC(CSc1ccc2ccccc2c1)C(O)Cc1ccccc1C(=O)NC(C)(C)C (stereo not drawn)" assay_metric="log10 IC50" observed_result=4.23
compound="CC(C)(C)NC(=O)c1ccccc1C[C@@H](O)[C@H](CSc1ccc2ccccc2c1)NC(=O)c1cccc2cnccc12 (relative stereo)" assay_metric="log10 IC50" observed_result=3.14
compound="CC(C)(C)NC(=O)c1ccccc1CC(O)C(CSc1ccc2ccccc2c1)NC(=O)c1cccc(N)c1 (stereo not drawn)" assay_metric="log10 IC50" observed_result=2.35
compound="CC(C)(C)NC(=O)C1CC2CCCCC2CN1CC(O)C(Cc1ccccc1)NC(=O)c1cccc2c1CCCN2 (stereo not drawn)" assay_metric="log10 IC50" observed_result=1.69
compound=Cc1c(O)cccc1C(=O)N[C@@H](CSc1ccccc1)[C@H](O)CN1CCN(Cc2cccnc2)C[C@H]1C(=O)NC(C)(C)C assay_metric="log10 IC50" observed_result=-0.28
